Taken from patent US20250019437A1.

Entries and their measured Binding Signal (fold over 6E7 parental antibody) follow.
- assay.target: T1, human TREM2 (triggering receptor expressed on myeloid cells 2) (human) (UniProt Q9NZC2)
- T1 sequence (looked up): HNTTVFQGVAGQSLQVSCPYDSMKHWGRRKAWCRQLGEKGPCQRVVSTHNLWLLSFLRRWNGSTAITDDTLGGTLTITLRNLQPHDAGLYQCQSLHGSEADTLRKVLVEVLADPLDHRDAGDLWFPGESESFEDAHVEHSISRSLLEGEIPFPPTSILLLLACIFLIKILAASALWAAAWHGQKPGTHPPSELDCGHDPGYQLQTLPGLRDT
- assay: 1st screen, 10 nM Ab
// return numeric value only (unit: fold, not printed)

// worked examples, Binding Signal (fold over 6E7 parental antibody) included
6E7 antibody affinity modulation variant V60 (antibody, V domains shown) VH: EVQLVQSGAEVKKPGESLKISCKGSGYHFTSYWIAWVRQMPGKGLEWMGIIYPGDSDVRYSPSFQGQVTISADKSISTAYLQWSSLKASDTAMYFCARQRTFYYDSSDYSDYWGQGTLVTVSS VL: DIQMTQSPSSVSASVGDRVTITCRASQGISSWLAWYQQKPGKAPKLLIYAASSLQRGVPSRFSGSGSGTDFTLTISSLQPEDFATYFCGQADSFPRTFGQGTKLEIK: 3.26
6E7 antibody affinity modulation variant V2 (antibody, V domains shown) VH: EVQLVQSGAEVKKPGESLKISCKGSGSSFTSYWIAWVRQMPGKGLEWMGIIYPGDGDTRYSPSFQGQVTISADKSISTAYLQWSSLKASDTAMYFCARSRTFYYDSSDYFDYWGQGTLVTVSS VL: DIQMTQSPSSVSASVGDRVTITCRASQGISSWLAWYQQKPGKAPKLLIYAASSRQNGVPSRFSGSGSGTDFTLTISSLQPEDFATYFCQQADRFPRTFGQGTKLEIK: 2.55
6E7 antibody affinity modulation variant V65 (antibody, V domains shown) VH: EVQLVQSGAEVKKPGESLKISCKGSGYSFTSYWIAWVRQMPGKGLEWMGIIYPGDSDTRYSPSFQGQVTISADKSISTAYLQWSSLKASDTAMYFCARSRTFYYDSSDYFDYWGQGTLVTVSS VL: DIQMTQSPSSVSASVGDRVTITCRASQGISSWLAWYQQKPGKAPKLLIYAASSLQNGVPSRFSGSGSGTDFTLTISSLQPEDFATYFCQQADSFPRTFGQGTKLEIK: 2.05
6E7 antibody affinity modulation variant V50 (antibody, V domains shown) VH: EVQLVQSGAEVKKPGESLKISCKGSGYSFGSYWIAWVRQMPGKGLEWMGVIYPGDSDTRYSPSFQGQVTISADKSISTAYLQWSSLKASDTAMYFCARQRTFYYDSSDYLDYWGQGTLVTVSS VL: DIQMTQSPSSVSASVGDRVTITCRASQGISSWLAWYQQKPGKAPKLLIYAASSRQNGVPSRFSGSGSGTDFTLTISSLQPEDFATYFCQQADSLPRTFGQGTKLEIK: 4.1
6E7 antibody affinity modulation variant V88 (antibody, V domains shown) VH: EVQLVQSGAEVKKPGESLKISCKGSGYSFGSYWIAWVRQMPGKGLEWMGIIYPGDSDTRYSPSFQGQVTISADKSISTAYLQWSSLKASDTAMYFCARQRTFYYDSSDYFDYWGQGTLVTVSS VL: DIQMTQSPSSVSASVGDRVTITCRASQGISSWLAWYQQKPGKAPKLLIYAASRLQRGVPSRFSGSGSGTDFTLTISSLQPEDFATYFCQQADSSPRTFGQGTKLEIK: 4.92

Documented Binding Signal (fold over 6E7 parental antibody) of 6E7 antibody affinity modulation variant V36 (antibody, V domains shown) VH: EVQLVQSGAEVKKPGESLKISCKGSGYSFTSYWLAWVRQMPGKGLEWMGIIYPGDSDTRYSPSFQGQVTISADKSISTAYLQWSSLKASDTAMYFCARSRTFYYDSSDYFDYWGQGTLVTVSS VL: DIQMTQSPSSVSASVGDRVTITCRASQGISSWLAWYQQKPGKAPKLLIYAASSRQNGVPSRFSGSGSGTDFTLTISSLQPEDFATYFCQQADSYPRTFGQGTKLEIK : 3.38

Documented Binding Signal (fold over 6E7 parental antibody) of 6E7 antibody affinity modulation variant V17 (antibody, V domains shown) VH: EVQLVQSGAEVKKPGESLKISCKGSGYSFGSYWIAWVRQMPGKGLEWMGIIYPGDSDTRYSPSFQGQVTISADKSISTAYLQWSSLKASDTAMYFCARSRTFYYDSSDYFDYWGQGTLVTVSS VL: DIQMTQSPSSVSASVGDRVTITCRASQGISSWLAWYQQKPGKAPKLLIYAASSRQNGVPSRFSGSGSGTDFTLTISSLQPEDFATYFCQQADSSPRTFGQGTKLEIK : 5.37

Documented Binding Signal (fold over 6E7 parental antibody) of 6E7 antibody affinity modulation variant V29 (antibody, V domains shown) VH: EVQLVQSGAEVKKPGESLKISCKGSGYSFKSYWIAWVRQMPGKGLEWMGIIYPGDSDTRYSPSFQGQVTISADKSISTAYLQWSSLKASDTAMYFCARQRTFYYDSSDYFDYWGQGTLVTVSS VL: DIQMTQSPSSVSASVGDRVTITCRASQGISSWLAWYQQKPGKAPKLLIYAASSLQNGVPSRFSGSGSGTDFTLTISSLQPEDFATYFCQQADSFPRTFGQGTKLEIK : 1.53

Documented Binding Signal (fold over 6E7 parental antibody) of 6E7 antibody affinity modulation variant V26 (antibody, V domains shown) VH: EVQLVQSGAEVKKPGESLKISCKGSGYSFTSYWIGWVRQMPGKGLEWMGTIYPGDSDTRYSPSFQGQVTISADKSISTAYLQWSSLKASDTAMYFCARQRTMYYDSSDYFDAWGQGTLVTVSS VL: DIQMTQSPSSVSASVGDRVTITCRASQGISSWLAWYQQKPGKAPKLLIYAASSLQRGVPSRFSGSGSGTDFTLTISSLQPEDFATYFCQQADSYPRTFGQGTKLEIK : 3.57

Documented Binding Signal (fold over 6E7 parental antibody) of 6E7 antibody affinity modulation variant V89 (antibody, V domains shown) VH: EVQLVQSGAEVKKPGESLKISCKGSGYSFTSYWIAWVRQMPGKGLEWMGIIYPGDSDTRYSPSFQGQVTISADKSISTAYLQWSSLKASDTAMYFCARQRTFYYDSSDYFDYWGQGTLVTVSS VL: DIQMTQSPSSVSASVGDRVTITCRASQGISSWLAWYQQKPGKAPKLLIYAASSLQNGVPSRFSGSGSGTDFTLTISSLQPEDFATYFCQQADSHPRTFGQGTKLEIK : 1.33
